# MEASUREMENT_PROTOCOL: Toxicity liver stage against HepG2, at 10uM
# Type: cell-based
# Design: test concentration 10 uM, cell line HepG2-A16-CD81EGFP
# CONDITION: human, HepG2-A16-CD81EGFP cells; read-out: INHIBITION
METRIC_NAME: cytotoxicity at 10 µM

Guide cases for cytotoxicity at 10 µM, answers given:
CCn1nc(C)c2nc(C(C)C)nc(NCc3ccccn3)c21
7.09%
Cn1ccnc1-c1cccc(NC(=O)NCC(=O)NC(C)(C)C)c1
-3.84%
COc1ccccc1C(=O)NC(C)CC(=O)O (stereo unspecified)
-2.43%

Now, please, on to the next compound.
Suppose we examine the compound COc1ccc(OCc2nc(C(=O)N3CCC(NC(C)=O)C3)co2)cc1 (stereo unspecified) ; what cytotoxicity at 10 µM value has been reported?
-1.21%
